Test: solubility of dexamethasone
Format: physicochemical
Details: absolute ethanol, organic solvent or mixture, thermodynamic from solid; absolute EtOH; read-out: most concentrated solution with complete solubility
Property Measured: solubility (mM)
Output spec: scalar in mM, unitless text.

Prompt: Which solubility value belongs to `C[C@@H]1C[C@H]2[C@@H]3CCC4=CC(=O)C=C[C@]4(C)[C@@]3(F)[C@@H](O)C[C@]2(C)[C@@]1(O)C(=O)CO` ?
Response: 10
